- Tested on: HL60 cells
- ASSAY COMMENT: AsedaSciences SYSTEMETRIC Cell Health Screen (flow cytometry toxicity profiling)
- CONDITIONS USED: HL60, 4 h, 5 nM–100 µM, probability 0–1, n = 2
READOUT: MMP: Mitochondrial membrane depolarization score
Hey, just send me the number, nothing else.

[
  {
    "MOLECULE": "C#Cc1cccc(Nc2ncnc3cc(Br)ccc23)c1",
    "VALUE OBSERVED": 0.17
  },
  {
    "MOLECULE": "C#Cc1cccc(Nc2ccnc3cc(I)ccc23)c1F",
    "VALUE OBSERVED": 0.60
  },
  {
    "MOLECULE": "C#Cc1cccc(Nc2ncnc3ccc(Br)cc23)c1",
    "VALUE OBSERVED": 0.11
  },
  {
    "MOLECULE": "Cc1ccc(N(CC2=NCCN2)c2cccc(O)c2)cc1 [Phentolamine, reference compound]",
    "VALUE OBSERVED": 0.29
  },
  {
    "MOLECULE": "Clc1cccc(Cl)c1N=C1NCCN1 [Clonidine, reference compound]",
    "VALUE OBSERVED": 0.010
  },
  {
    "MOLECULE": "C#Cc1cccc(Nc2ncnc3ccccc23)c1",
    "VALUE OBSERVED": 1.00
  },
  {
    "MOLECULE": "CSc1ccc2c(c1)N(CCC1CCCCN1C)c1ccccc1S2 (stereo not drawn) [Thioridazine, reference compound]",
    "VALUE OBSERVED": 1.00
  },
  {
    "MOLECULE": "Cc1cn([C@@H]2C[C@@H](O)[C@H](CO)O2)c(=O)[nH]c1=O [Telbivudine, reference compound]",
    "VALUE OBSERVED": 0.010
  }
]

QUERY: Answer with reported MMP: Mitochondrial membrane depolarization score of NC(=O)c1ncn([C@@H]2O[C@H](CO)[C@@H](O)[C@H]2O)n1 [Ribavirin, reference compound]
RESULT: 0.000
